PROCEDURE DETAILS: Determination of LD50 in mice
Assay type: in vivo
SETUP CONDITIONS: male, BALB/c, mouse, in vivo, po
MEASURE: LD50 at 24 h (mg/kg)

>  <CHEMICAL STRING>
CC(=NNC(=O)c1cccc(C)c1)c1ccc(NC(=O)Cn2c(=O)c3c(ncn3C)n(C)c2=O)cc1

>  <RESULT UNIT>
mg/kg

>  <REPORTED MEASUREMENT>
5000

$$$$
